# Tested on: Rattus norvegicus
# EXPERIMENTAL_DETAILS: Antiinflammatory activity against 3h carrageenan pleurisy (cells) in rat peroral administration
# Type: functional
# PARTICULARS: po
ENDPOINT: ED50 (mg/kg)
Report the figure in mg/kg without appending any unit label.

The cases that follow already have their ED50 on record.
NC(=O)/C=C1\CCc2c(F)cc(F)cc21	19
CNC(=O)/C=C1\CCc2c(Cl)cc(F)cc21	8
NC(=O)/C=C1\CCc2c(Cl)cc(F)cc21 (stereo in doubt; 3)	11

For this molecule ( NC(=O)/C=C1\CCc2c(Cl)cc(Cl)cc21 ), measured ED50 is 25

* * *

# Test system: Rattus norvegicus
# EXPERIMENTAL_DETAILS: Percent inhibition of analgesia activity when administered perorally at 20 mg/kg in rat
# Format: functional
# PARTICULARS: Rattus norvegicus, po
Note to self: values exactly at 30% are Met. So inhibition in vivo at 20 mg/kg at or above 30% is Met, below is Not met.

NC(=O)/C=C1\CCc2c(Cl)cc(F)cc21 (stereo in doubt)	Met
O=C(/C=C1\CCc2c(F)cc(Cl)cc21)NC1CC1	Met
CNC(=O)/C=C1\CCc2cc(Cl)c(F)cc21	Not met
NC(=O)/C=C1\CCc2cc(Cl)cc(Cl)c21	Met

Determine whether this compound has inhibition in vivo at 20 mg/kg no lower than 30%: CNC(=O)/C=C1\CCc2c(C)cc(F)cc21
Met

Determine whether this compound has inhibition in vivo at 20 mg/kg no lower than 30%: Cc1cc(F)cc2c1CC/C2=C\C(N)=O
Met

Determine whether this compound has inhibition in vivo at 20 mg/kg no lower than 30%: O=C(/C=C1\CCc2cc(Cl)c(F)cc21)NC1CC1
Not met

* * *

# Tested on: Rattus norvegicus
# EXPERIMENTAL_DETAILS: Percent inhibition of analgesia activity when administered perorally at 20 mg/kg in rat
# Type: functional
# PARTICULARS: Rattus norvegicus, po
ENDPOINT: inhibition in vivo at 20 mg/kg (%)
Report the figure in % without appending any unit label.

The cases that follow already have their inhibition in vivo at 20 mg/kg on record.
CNC(=O)/C=C1\CCc2c(Cl)cc(Cl)cc21	12
NC(=O)/C=C1\CCc2cc(Cl)c(F)cc21	19
O=C(/C=C1\CCc2c(Cl)cc(F)cc21)NC1CC1	75

Now examine the next entry.
For this compound ( CNC(=O)/C=C1\CCc2cc(Cl)cc(Cl)c21 ), measured inhibition in vivo at 20 mg/kg is 22
